Hello, the source for this data is PubChem BioAssay (NCI), in case you need it.

Tested on: MDA-MB-435
Exercise: state measured GI50 for each of the compounds provided.

In the examples that follow, each entry is paired with its recorded GI50.
CC(C)[C@H]1CC[C@H]2[C@@H](CC[C@H]3[C@](C)(CN)CCC[C@]23C)C1    2.13 µM
Cc1cc(NCCCNc2ccnc3cc(Cl)ccc23)nc(N2CCN(C)CC2)n1    2.57 µM

Field: next compound
Indicate its recorded GI50; the compound in question is "C#CCN(Cc1nc2cc(C(F)(F)F)ccc2nc1-c1ccccc1)c1ccc(OC(F)(F)F)cc1"
39.4 µM

###

System: RXF 393 renal
Experiment: NCI tumour cell line growth inhibition, 48 h
measure: TGI

In the examples that follow, each entry is paired with its recorded TGI.
N#CC(c1ccnc(Cl)n1)c1nc2ccccc2s1 (stereo not given)    > 62.7 µM
COC(=O)[C@@H]1C=C[C@H](OC2OC(COC(C)=O)C(OC(C)=O)C(OC(C)=O)C2OC(C)=O)n2c(=O)c3ccccc3c(=O)n21 (stereo not given in full)    20.1 µM
CC(C)Nc1ccc(Nc2ccccc2)cc1    24.6 µM
Cn1ccnc1C(=O)/C=C/c1ccc(C(=O)Nc2ccc(S(F)(F)(F)(F)F)cc2)cc1    13.9 µM

Lab note: RXF 393 renal assay, enter TGI for CS(=O)(=O)OC1CN2CCC1CC2 (stereo not given) here
> 100 µM

###

Tested on: MCF7 breast
Assay: NCI tumour cell line growth inhibition, 48 h
Exercise: state measured TGI for each of the compounds provided.

In the examples that follow, each entry is paired with its recorded TGI.
COc1cc2c3c(n(CCCN(CCN)CCCn4c5c(c6cc(OC)c(OC)cc6c4=O)C(=O)c4cc6c(cc4-5)OCO6)c(=O)c2cc1OC)-c1cc2c(cc1C3=O)OCO2    > 36 µM
O=S(=O)(N/N=C1\CC2CCC1C2)c1ccccc1 (stereo unspecified)    > 100 µM
C=[N+](CNC(=O)CNC(=O)C(Cc1ccc([N+](=O)[O-])cc1)NC(=O)OC(C)(C)C)C(=O)CNC(=O)C(Cc1ccc([N+](=O)[O-])cc1)NC(=O)OC(C)(C)C (stereo unspecified)    > 100 µM
COc1cccc(C2C3=C(COC3=O)N(CCO)c3cc(OC)ccc32)c1 (stereo unspecified)    > 100 µM
N/C(=N\S(=O)(=O)c1cccc2nsnc12)Nc1ccc(Cl)cc1    > 100 µM

Fill in TGI for each of the 4 compounds listed.
1. CN(CCCCCl)P(=O)(OCc1ccc([N+](=O)[O-])o1)OCC1OC(n2ccc(N)nc2=O)C(F)(F)C1O (stereo unspecified)
2. S=C1Cc2c(-c3ccc(Cl)cc3)cc(-c3ccccc3)nc2-c2ccccc2N1
3. Cn1ccnc1C(=O)/C=C/c1ccc(C(=O)Nc2ccc(S(F)(F)(F)(F)F)cc2)cc1
4. N#Cc1ncc(-c2ccc(C(F)(F)F)cc2)c(NCc2cc(C(F)(F)F)cc(C(F)(F)F)c2)n1

1. > 49 µM
2. > 100 µM
3. > 14.3 µM
4. > 100 µM

###

Test system: SK-OV-3 ovarian
Experiment: NCI tumour cell line growth inhibition, 48 h; in the data active = GI50 below about 0.43 µM; inactive = the rest
Please answer using one outcome listed in active, inactive

Consider the worked cases shown below.
COc1cc(C(=O)N2N=C(c3ccc(S(C)(=O)=O)cc3)CC2c2ccco2)cc(OC)c1OC (configuration not stated)    inactive
Fc1ccc(-c2nn3c(-c4ccc(F)c(Cl)c4)nnc3s2)cc1    inactive
Cn1cc(C2=C(c3cn(CCO)c4ccccc34)C(=O)NC2=O)c2ccccc21    inactive
C/C=C/C/C=C/CCC(=O)[C@H]1O[C@H]1C(N)=O    inactive
CCOc1ccc(-c2cnnn2-c2nonc2-n2cccc2)cc1    active

Please share the test call associated with "S=C(N/N=C(/c1ccccc1)c1ccccn1)N1CCCCC1" .
active

Please share the test call associated with "CN(c1cc2ncc(=O)[nH]c2cc1NC(N)=NCc1ccc(Cl)cc1)C1CCCCC1" .
inactive

###

Exercise: state measured TGI for each of the compounds provided.
Test system: SK-OV-3 ovarian
Experiment: NCI tumour cell line growth inhibition, 48 h

Fill in TGI for each of the 3 compounds listed.
1. CCOC(=O)N1C2C=C(C)C(ON2C(=O)c2ccccc2)C2C(C)C(=O)N21 (stereo not drawn)
2. COC(=O)C1CCOC(C)N1C(=O)OC(C)(C)C (stereo not drawn)
3. CC(C)(C)OC(=O)NCC(=O)NC1c2ccsc2/C(=N/O)[C@H]1O (stereo partly drawn)

1. > 100 µM
2. > 100 µM
3. > 100 µM

###

Tested on: KM12 colon
Assay: NCI tumour cell line growth inhibition, 48 h
Exercise: state measured TGI for each of the compounds provided.

Fc1ccc(-c2nn3c(-c4ccc(F)c(Cl)c4)nnc3s2)cc1    > 50 µM
Nc1nc2sc3ccccc3c(=O)n2n1    > 100 µM
Cc1nc2ccc(Cl)cc2c2c1CCS2    > 100 µM

Fill in TGI for each of the 5 compounds listed.
1. O=c1[nH]cnc2c1sc1nc3ccccc3n12
2. Cc1cccc2cc3c(ccc4ccccc43)c[n+]12
3. O=c1ccc(N=Nc2ccc([N+](=O)[O-])cc2)ccc1O
4. Cc1ccccc1C1OC(=O)c2ccccc21 (stereo not drawn)
5. CC1(C)/C(=N\O)C2(C#N)CCC1C2 (stereo not drawn)

1. 54.9 µM
2. 32 µM
3. > 100 µM
4. > 100 µM
5. > 100 µM

Fill in TGI for each of the 4 compounds listed.
1. CCOC(=O)C1C(c2ccc(OC)cc2)c2c([nH]n(-c3ccccc3)c2=O)CC1(O)OCC (stereo not drawn)
2. CCCOC(=O)C1CCC(=O)N1C(=O)C(C)Cl (stereo not drawn)
3. CC(=O)N1c2ccccc2C2=CC3C4C(=O)N(c5ccccc5)C(=O)C4C21C1C(=O)N(c2ccccc2)C(=O)C31 (stereo not drawn)
4. COc1cc2cc(C(=O)CCC(=O)O)sc2cc1OC

["> 100 µM", "> 100 µM", "> 100 µM", "> 100 µM"]

Fill in TGI for each of the 8 compounds listed.
1. O=c1cc(-c2ccccc2)oc2cc(O)c(O)c(O)c12
2. Cc1n[nH]c(=O)n1C1CCCC1
3. O=S(=O)(O)CCCC1S(=O)(=O)OCCOS1(=O)=O
4. Clc1cc2c(cc1Cl)Oc1cc(Cl)c(Cl)cc1O2
5. CC(=O)N1N=C(c2ccc(Nc3nc(Nc4ccc(Cl)cc4)nc(Nc4ccc(Cl)cc4)n3)cc2)CC1c1ccc([N+](=O)[O-])cc1 (stereo not drawn)
6. CN(c1cc2ncc(=O)[nH]c2cc1NC(N)=NCc1ccc(Cl)cc1)C1CCCCC1
7. COC(=O)[C@@H]1C=C[C@H](OC2OC(COC(C)=O)C(OC(C)=O)C(OC(C)=O)C2OC(C)=O)n2c(=O)c3ccccc3c(=O)n21 (stereo partly drawn)
8. COc1cc(-n2cc(-c3ccc(F)cc3)nc2SCc2ccccc2)cc(OC)c1OC

["62.5 µM", "> 100 µM", "> 100 µM", "> 0.625 µM", "> 62.4 µM", "10.9 µM", "27.4 µM", "> 100 µM"]

###

Test system: OVCAR-4 ovarian
Experiment: NCI tumour cell line growth inhibition, 48 h
measure: TGI

In the examples that follow, each entry is paired with its recorded TGI.
C#CCNC(=O)NCCCC(NC(C)=O)C(=O)NCc1ccccc1 (centres undefined)    > 100 µM
CS(=O)(=O)OCC1OC(n2ccc(NC(=O)c3ccccc3)nc2=O)CC1OS(C)(=O)=O (centres undefined)    > 100 µM
Cc1cc(Cl)cc2c(N=Nc3ccccc3[N+](=O)[O-])c(O)[nH]c12    > 100 µM

Indicate its recorded TGI; the molecule in question is "NC(=O)C#CC#CC#CCO"
3.53 µM

###

Tested on: OVCAR-8 ovarian
Experiment: NCI tumour cell line growth inhibition, 48 h
measure: TGI

CCN1C=C/C(=C\C=C/c2cc[n+](CC)c3ccccc23)c2ccccc21    17.1 µM
CC(=O)Oc1c(C)c2c(O)c3c1C1=C(OCOC1=C(C)C3=O)/C(C)=C\C(C)(O)C(O)C(C)C(O)C1C(=O)OC(C(C)C1O)C(C)(O)/C=C/C=C(C)C(=O)N2 (stereo unspecified)    > 100 µM
O=C(C[C@H](NC(=O)OCc1ccccc1)C(=O)NC1Cc2ccccc2OC1=O)OCc1ccccc1 (stereo partly specified)    > 100 µM
COC(=O)C1CCC(Nc2ccc(C)cc2C)=N1 (stereo unspecified)    > 100 µM

Fill in TGI for each of the 2 molecules listed.
1. COc1cccc(C2C3=C(COC3=O)N(CCO)c3cc(OC)ccc32)c1 (stereo unspecified)
2. O=[N+]([O-])c1ccccc1N=Nc1c(O)[nH]c2ccc(Br)cc12

1: > 100 µM; 2: 44 µM

Fill in TGI for each of the 4 molecules listed.
1. CO/C=C(/C(=O)OC)c1ccccc1[C@@H]1CC1c1cccc(F)c1 (stereo partly specified)
2. N#Cc1c(NC(=S)Nc2ccc(Cl)cc2)sc2c1CCCC2
3. O=C(CCC(=O)Nc1cccc(Cl)c1)CC(=O)c1ccc(F)cc1
4. O=C1CCCC2C(O)CCC[C@H]12 (stereo partly specified)

> 100 µM
> 100 µM
> 100 µM
> 100 µM

Fill in TGI for each of the 6 molecules listed.
1. CC(=O)CCc1ccc(OC2OC(COC(=O)c3cc(O)c(O)c(O)c3)C(O)C(O)C2OC(=O)/C=C/c2ccccc2)cc1 (stereo unspecified)
2. CC(C)CCC[C@@H](C)[C@H]1CC[C@H]2[C@@H]3CC[C@H]4C[C@H](N)CC[C@]4(C)[C@H]3CC[C@]12C
3. CCOC(=O)N1C2C=C(C)C(ON2C(=O)c2ccccc2)C2C(C)C(=O)N21 (stereo unspecified)
4. Cc1ccccc1C1OC(=O)c2ccccc21 (stereo unspecified)
5. O=S1(=O)C(c2ccccc2)C(N2CCCCC2)C1C1CC2c3ccccc3C1c1ccccc12 (stereo unspecified)
6. CC1(C)/C(=N\O)C2(C#N)CCC1C2 (stereo unspecified)

1: 55 µM; 2: 86.4 µM; 3: > 100 µM; 4: > 100 µM; 5: > 100 µM; 6: > 100 µM
